Where these numbers come from: the supplement of paper PMC4022240

# target.desc: HaloTag-ING2 PHD (mouse Ing2 200-280)
# protocol.text: peptide microarray binding signal (635 nm), min-max normalized on array (fraction of array maximum); higher = stronger binding
# condition.notes: peptide region: Unmod H3 variant; binder concentration: 10 nM
Dear colleague, classification is by peptide microarray binding signal, with ranges listed here: low group = under 0.005, middle group = from 0.005 up to 0.008, high group = 0.008 and over

Worked set:
[
  {
    "binder": "RVTIMPKDIQLAR [Unmod H3 variant R V T I M P K D I Q L A R]",
    "category": "high group"
  },
  {
    "binder": "ATKAARKSAPSTG [Unmod H3 variant A T K A A R K S A P S T G]",
    "category": "high group"
  },
  {
    "binder": "ALQEASEAYLVGL [Unmod H3 variant A L Q E A S E A Y L V G L]",
    "category": "low group"
  },
  {
    "binder": "ATGGVKKPHRYRP [Unmod H3 variant A T G G V K K P H R Y R P]",
    "category": "middle group"
  },
  {
    "binder": "VGLFEDTNLCAIH [Unmod H3 variant V G L F E D T N L C A I H]",
    "category": "low group"
  }
]

Alright, here's another binder for you.
Query string: Kindly identify the class of ARTKQTARKSTGG [Unmod H3 variant A R T K Q T A R K S T G G] .
Result string: high group
